Test system: SK-OV-3
RUN_DESCRIPTION: NCI tumour cell line growth inhibition, 48 h
Activity calls are given as the source filed them. Rule as the data show it: active = GI50 up to about 1.1 µM and inactive = higher.

- MOLECULE: "O=S(=O)(O)/C(=N\\c1cccc(Cc2ccccc2)c1)Nc1cccc(Cc2ccccc2)c1"
  TARGET_DESC: "SK-OV-3"
  GI50: "21 µM (inactive)"
- MOLECULE: "CC1=C(NC(=O)/C(=N/NC(=S)NN)C2C(=O)CC(C)(C)CC2=O)C(=O)c2ccccc2C1=O"
  TARGET_DESC: "SK-OV-3"
  GI50: "19.8 µM (inactive)"
- MOLECULE: "NCC(O)CSCc1ccc(Cl)cc1 (configuration not stated)"
  TARGET_DESC: "SK-OV-3"
  GI50: "> 100 µM (inactive)"
- MOLECULE: "Cc1ccc(C)c(NC(=O)C(=O)C2C(=O)C3=C(CC2(C)C)Nc2ccccc2S3)c1 (configuration not stated)"
  TARGET_DESC: "SK-OV-3"
  GI50: "60.4 µM (inactive)"
- MOLECULE: "O=C1Oc2cc3c(c4cccc1c24)OCN(c1ccccc1)C3"
  TARGET_DESC: "SK-OV-3"
  GI50: "> 100 µM (inactive)"
- MOLECULE: "CN(C)Cc1cc(O)c(O)c(CN(C)C)c1"
  TARGET_DESC: "SK-OV-3"
  GI50: "54.1 µM (inactive)"
- MOLECULE: "CCOC(=O)C1=CC(C)(C(=O)OCC)Nc2c(nc(OC)n(C)c2=O)N1 (configuration not stated)"
  TARGET_DESC: "SK-OV-3"
  GI50: "> 10 µM (inactive)"

---

System: NCI-H522
RUN_DESCRIPTION: NCI tumour cell line growth inhibition, 48 h
The source made the active and inactive calls. Cut-off read from the data, not from the text of the source: active = GI50 up to about 1.1 µM and inactive = higher. Numbered stars: 1 amine (or outer) side, 2 acyl side, 3 side chain; on linkers, the order of the positions; unused ones are H or OH. Square brackets hold non-standard residues; d marks the D form. Peptide text beside a SMILES is read from it. X55 = CC[C@H](C)[C@H](OC(=O)[C@@H](C)[C@@H](CC)N[*:1])C(=O)[*:2]; X31 = C[C@H](N[*:1])C(=O)C(C)(C)C(=O)[*:2]; NMeY = CN[C@@H](Cc1ccc(O)cc1)C(=O)O; NMeL = CN[C@@H](CC(C)C)C(=O)O; NMeV = CN[C@H](C(=O)O)C(C)C
Outcomes: active, inactive

- MOLECULE: "Cc1ccc(S(=O)(=O)C(CC(=O)N2CCCC2)C(=O)c2ccccc2)cc1 (stereo not drawn)"
  ANSWER_LABEL: "inactive"
- MOLECULE: "N#CCCN(CCC#N)c1ccc(C(/N=N/c2ccc(Cl)cc2)=N\\c2ccccc2)cc1"
  ANSWER_LABEL: "inactive"
- MOLECULE: "CN(CCO)c1nc(N)cc(=O)[nH]1"
  ANSWER_LABEL: "inactive"
- MOLECULE: "Cc1cc2c(C(C)C)c(O)c(O)c(/C=N/c3cc(C(F)(F)F)ccc3Cl)c2c(O)c1-c1c(C)cc2c(C(C)C)c(O)c(O)c(/C=N/c3cc(C(F)(F)F)ccc3Cl)c2c1O"
  ANSWER_LABEL: "inactive"
- MOLECULE: "CCOC(=O)C(C)c1nc2cc(F)c(N3CCOCC3)cc2[nH]c1=O (stereo not drawn)"
  ANSWER_LABEL: "inactive"
- MOLECULE: "COc1cc(C(SCc2ccccc2)SCc2ccccc2)ccc1O"
  ANSWER_LABEL: "inactive"
- MOLECULE: "Cc1ccc(C)c(NC(=O)C(=O)C2C(=O)C3=C(CC2(C)C)Nc2ccccc2S3)c1 (stereo not drawn)"
  ANSWER_LABEL: "inactive"
- MOLECULE: "CC[C@H](C)[C@@H]1OC(=O)[C@@H](C)[C@@H](CC)NC(=O)[C@H](C)NC(=O)C(C)(C)C(=O)[C@H](C)NC(=O)[C@H](Cc2ccc(OC)cc2)N(C)C(=O)[C@H](C(C)C)N(C)C(=O)CNC(=O)[C@H](CC(C)C)N(C)C(=O)CNC1=O [DOLASTATIN 11] (cyclo(A[X55]G[NMeL]G[NMeV][NMeY](Me)[X31]))"
  ANSWER_LABEL: "active"
- MOLECULE: "c1ccc2c(c1)Sc1ccccc1N2CC1CN2CCC1CC2 (stereo not drawn) [MEQUITAZINE]"
  ANSWER_LABEL: "inactive"
- MOLECULE: "COc1cc(CCc2ccc(OC(C)=O)cc2)cc(OC)c1OC"
  ANSWER_LABEL: "inactive"
- MOLECULE: "CC[C@@]1(C[C@H]2C[C@@]3(C(=O)OC)c4[nH]c5ccccc5c4CCN3C2=S)COC2(CCCCC2)O1"
  ANSWER_LABEL: "inactive"
- MOLECULE: "CC1C2CC(C(S(=O)(=O)O)C2=O)C1(C)C (stereo not drawn)"
  ANSWER_LABEL: "inactive"
- MOLECULE: "O=S(O)CCCCCSSCCCCSSCCCCCS(=O)O"
  ANSWER_LABEL: "inactive"
- MOLECULE: "CCCC(=O)NC(Nc1cc(C)ccn1)(C(=O)OCC)C(F)(F)F (stereo not drawn)"
  ANSWER_LABEL: "inactive"
- MOLECULE: "COc1ccc(-c2cc(=O)c3ccc(O)cc3o2)c(OC)c1OC"
  ANSWER_LABEL: "inactive"
- MOLECULE: "COC(=O)/C(C#N)=C(\\Nc1ccccc1)N1CCCCC1"
  ANSWER_LABEL: "inactive"
- MOLECULE: "COC(=O)[C@@H]1[C@H]2CC[C@]3(C)[C@@H](OC(C)=O)CC[C@H]3[C@@H]2CC[C@H]1C(C)=O"
  ANSWER_LABEL: "inactive"
- MOLECULE: "CN(C)c1ccc(/C=c2/sc3nc(=O)c(-c4ccccc4NC(=O)C(F)(F)F)nn3c2=O)cc1"
  ANSWER_LABEL: "inactive"
